test: Therapeutic index, ratio of EC50 for human KB cells to EC50 for intracellular Leishmania donovani MHOM/ET/67/HU3 amastigotes infected in peritoneal macrophages of Mesocricetus auratus; assay type: cell-based; conditions: read-out: TI
Listed here: items and their measured selectivity ratio.
Please give only the number in your answer, with no unit.

CCCCCCCCCCCCCCCCOP(=O)([O-])OC1CC[N+](C)(Cc2ccccc2)CC1 (centres undefined) = 179
CCCCCCCCCCCCCCCCCCOP(=O)([O-])OC1CC[N+](CC)(CC)CC1.O.O = 6.89
CCCCCCCCCCCCCCCCOP(=O)([O-])OCC[N+]1(C)CCCCC1 = 23.4

Next compound, please.
Quick one: selectivity ratio of CCCCCCCCCCCCCCCCOP(=O)([O-])OCC[N+](C)(C)C ?
0.83
